# Protocol Notes: Compartmental PK model, IV and SQ co-modeling
# Assay type: in vivo, C57BL/6 J mice
# Conditions Used: C57BL/6 J, mouse, plasma, other: intravenous and subcutaneous injection, co-modelled, 0.5 mg; IV and SQ co-modeling; read-out: Elimination half-life t1/2, plasma TFV (converted)
Measured Endpoint: half-life (h)
Please give a number only; it is taken to be in h.

Ask: Name the reported half-life value associated with the compound C[C@H](Cn1cnc2c(N)ncnc21)OCP(=O)(O)O [TFV, tenofovir]
Reply: 53

----------
# Protocol Notes: Compartmental PK model, IV and SQ co-modeling
# Assay type: in vivo, C57BL/6 J mice
# Conditions Used: C57BL/6 J, mouse, plasma, other: intravenous and subcutaneous injection, co-modelled, 0.5 mg; IV and SQ co-modeling; read-out: t1/2, elimination half-life, plasma TFV (converted)
Measured Endpoint: half-life (h)
Please give a number only; it is taken to be in h.

Ask: Name the reported half-life value associated with the molecule C[C@H](Cn1cnc2c(N)ncnc21)OCP(=O)(O)O
Reply: 52.8

----------
# Protocol Notes: Intravenous TAF pharmacokinetic mouse study (plasma, PBMC, tissue homogenate)
# Assay type: in vivo, C57BL/6 J mice
# Conditions Used: female, C57BL/6 J, mouse, thymus, iv, 0.5 mg; read-out: Terminal half-life in thymus (NCA) (converted)
Parameter: half-life. Scope: all listed entries.
Please give a number only; it is taken to be in h.

INSERT INTO assay_data (molecule, quantitative_readout) VALUES
  ('C[C@H](Cn1cnc2c(N)ncnc21)OCP(=O)(O)OP(=O)(O)OP(=O)(O)O [TFV-DP, TFV diphosphate]', 23.3);

Field: next molecule
Ask: Name the reported half-life value associated with the molecule C[C@H](Cn1cnc2c(N)ncnc21)OCP(=O)(O)O
Reply: 20.1

----------
# Protocol Notes: Intravenous TAF pharmacokinetic mouse study (plasma, PBMC, tissue homogenate)
# Assay type: in vivo, C57BL/6 J mice
# Conditions Used: female, C57BL/6 J, mouse, spleen, iv, 0.5 mg; read-out: Terminal half-life in spleen (NCA) (converted)
Measured Endpoint: half-life (h)
Please give a number only; it is taken to be in h.

INSERT INTO measurements (compound, quantitative_readout) VALUES
  ('C[C@H](Cn1cnc2c(N)ncnc21)OCP(=O)(O)OP(=O)(O)OP(=O)(O)O [TFV-DP, TFV diphosphate]', 23.3);

Field: next compound
Ask: Name the reported half-life value associated with the compound C[C@H](Cn1cnc2c(N)ncnc21)OCP(=O)(O)O
Reply: 30.5

----------
Parameter: half-life. Scope: all listed entries.
# Protocol Notes: Intravenous TAF pharmacokinetic mouse study (plasma, PBMC, tissue homogenate)
# Assay type: in vivo, C57BL/6 J mice
# Conditions Used: female, C57BL/6 J, mouse, vaginal tissue, iv, 0.5 mg; read-out: Terminal half-life in vaginal tissue (NCA) (converted)
Write the numeric value and follow it with the unit.

INSERT INTO measurements (compound, result) VALUES
  ('C[C@H](Cn1cnc2c(N)ncnc21)OCP(=O)(O)OP(=O)(O)OP(=O)(O)O [TFV-DP, TFV diphosphate]', '31.2 h');

Field: next compound
Ask: Name the reported half-life value associated with the compound C[C@H](Cn1cnc2c(N)ncnc21)OCP(=O)(O)O
Reply: 39.1 h

----------
# Protocol Notes: Compartmental PK model, IV and SQ co-modeling
# Format: in vivo, C57BL/6 J mice
# Conditions Used: C57BL/6 J, mouse, plasma, other: intravenous and subcutaneous injection, co-modelled, 0.5 mg; IV and SQ co-modeling; read-out: V, volume of distribution of the central compartment
Measured Endpoint: Vd
Write the numeric value and follow it with the unit.

Ask: Name the reported Vd value associated with the molecule C[C@H](Cn1cnc2c(N)ncnc21)OCP(=O)(O)O
Reply: 4.59 L

----------
Parameter: half-life. Scope: all listed entries.
# Protocol Notes: Intravenous TAF pharmacokinetic mouse study (plasma, PBMC, tissue homogenate)
# Type: in vivo, C57BL/6 J mice
# Conditions Used: female, C57BL/6 J, mouse, rectal tissue, iv, 0.5 mg; read-out: Terminal half-life in rectal tissue (NCA) (converted)
# Procedure: C57BL/6 J Mice (9 groups of 4 animals each; 36 mice total) were administered the study product (0.5 mg dose, 0.1 mL) by intravenous (IV) injection. Animals (N = 4) were sacrificed at the following timepoints: Day 1 (1, 3, 6, 12, 24 h), Day 2, 4, 8, and 14. Blood was collected by exsanguination along with select tissue specimens (vide infra). […]

INSERT INTO measurements (compound, result) VALUES
  ('C[C@H](Cn1cnc2c(N)ncnc21)OCP(=O)(O)OP(=O)(O)OP(=O)(O)O [TFV-DP, TFV diphosphate]', '1580 min');

Field: next compound
Ask: Name the reported half-life value associated with the compound C[C@H](Cn1cnc2c(N)ncnc21)OCP(=O)(O)O
Reply: 2580 min

----------
# Protocol Notes: MALDI imaging mass spectrometry of dermal tissues adjacent to the implant
# Assay type: in vivo, C57BL/6 J mice
# Conditions Used: low-releasing (0.23 mg d^-1) implants, Day 14, 100 µm resolution
Measured Endpoint: MALDI-IMS signal and localization with implant in situ

INSERT INTO results (molecule, result) VALUES
  ('C[C@H](Cn1cnc2c(N)ncnc21)OCP(=O)(O)OP(=O)(O)OP(=O)(O)O [TFV-DP, TFV diphosphate]', 'weak'),
  ('CC(C)OC(=O)[C@H](C)N[P@](=O)(CO[C@H](C)Cn1cnc2c(N)ncnc21)Oc1ccccc1 [TAF, tenofovir alafenamide]', 'most abundant signals'),
  ('C[C@H](Cn1cnc2c(N)ncnc21)OCP(=O)(O)O', 'most abundant signals'),
  ('C[C@H](Cn1cnc2c(N)ncnc21)OCP(=O)(O)OP(=O)(O)O', 'weak');

----------
# Protocol Notes: Intravenous TAF pharmacokinetic mouse study (plasma, PBMC, tissue homogenate)
# Assay type: in vivo, C57BL/6 J mice
# Conditions Used: C57BL/6 J, mouse, PBMCs, iv, 0.5 mg; read-out: PBMC TFV-DP t1/2 (converted)
Measured Endpoint: half-life (h)
Please give a number only; it is taken to be in h.

Ask: Name the reported half-life value associated with the compound C[C@H](Cn1cnc2c(N)ncnc21)OCP(=O)(O)OP(=O)(O)OP(=O)(O)O [TFV-DP, TFV diphosphate]
Reply: 41

----------
# Protocol Notes: Subcutaneous TAF injection pharmacokinetic mouse study
# Format: in vivo, C57BL/6 J mice
# Conditions Used: C57BL/6 J, PBMCs, 0.5 mg, read-out: PBMC TFV-DP t1/2 (converted)
Measured Endpoint: half-life (min)
Please give a number only; it is taken to be in min.

Ask: Name the reported half-life value associated with the compound C[C@H](Cn1cnc2c(N)ncnc21)OCP(=O)(O)OP(=O)(O)OP(=O)(O)O [TFV-DP, TFV diphosphate]
Reply: 1020

----------
# Protocol Notes: Compartmental PK model, IV and SQ co-modeling
# Assay type: in vivo, C57BL/6 J mice
# Conditions Used: C57BL/6 J, mouse, plasma, other: intravenous and subcutaneous injection, co-modelled, 0.5 mg; IV and SQ co-modeling; read-out: CL, total body clearance (converted)
Measured Endpoint: clearance (mL/min)
Please give a number only; it is taken to be in mL/min.

Ask: Name the reported clearance value associated with the compound C[C@H](Cn1cnc2c(N)ncnc21)OCP(=O)(O)O
Reply: 4.48
